Test system: MALME-3M melanoma
Assay overview: NCI tumour cell line growth inhibition, 48 h
# TGI listing for each entry below
Measured metric: TGI

[
  {
    "Compound": "CCOc1ccc2nc(NC(=O)/C(CC(=O)CC(C3=C(O)c4ccccc4CC3=O)c3ccccc3)=N\\O)sc2c1 (stereo not given)",
    "Tested target": "MALME-3M melanoma",
    "Obs value": "> 100 µM"
  },
  {
    "Compound": "O=C(O[C@H](/C=C/c1ccccc1)P1(=O)N(Cc2ccccc2)[C@@H]2CCCC[C@H]2N1Cc1ccccc1)c1ccccc1",
    "Tested target": "MALME-3M melanoma",
    "Obs value": "12 µM"
  },
  {
    "Compound": "CCOC(=O)c1c(SCCN2CCCC2)n(-c2ccccc2)c(=S)n(-c2ccccc2)c1=O",
    "Tested target": "MALME-3M melanoma",
    "Obs value": "3.36 µM"
  },
  {
    "Compound": "Nc1ncnc2c1ncn2C(=O)NC12CC3CC(CC(C3)C1)C2",
    "Tested target": "MALME-3M melanoma",
    "Obs value": "> 100 µM"
  },
  {
    "Compound": "O=C(O)CNC(=O)c1ccc([As](=O)(O)O)cc1",
    "Tested target": "MALME-3M melanoma",
    "Obs value": "> 100 µM"
  },
  {
    "Compound": "Cc1c(C(=O)/C=C/c2cccc3ccccc23)[n+](=O)c2ccccc2n1[O-]",
    "Tested target": "MALME-3M melanoma",
    "Obs value": "34.9 µM"
  },
  {
    "Compound": "CCOC(=O)C(=O)N1C(C)=C(C(=O)OCC)CC(C(=O)OCC)=C1C",
    "Tested target": "MALME-3M melanoma",
    "Obs value": "> 100 µM"
  },
  {
    "Compound": "COc1ccc(/C=C(/C(=O)O)c2cc(OC)c(OC)c(OC)c2)cc1",
    "Tested target": "MALME-3M melanoma",
    "Obs value": "> 100 µM"
  },
  {
    "Compound": "O=[N+]([O-])C(=C(Sc1ccccc1)Sc1ccccc1)C(Cl)=C(Cl)Cl",
    "Tested target": "MALME-3M melanoma",
    "Obs value": "1.37 µM"
  },
  {
    "Compound": "COc1cc2c(cc1OC)C(=O)/C(=C/c1cc(C)c(O)c(C)c1)C2",
    "Tested target": "MALME-3M melanoma",
    "Obs value": "40.1 µM"
  },
  {
    "Compound": "C[C@]12CCC(=O)C=C1CC[C@@H]1C2CC[C@]2(C)NC(=O)C(C#N)CC12 (stereo not given in full)",
    "Tested target": "MALME-3M melanoma",
    "Obs value": "> 100 µM"
  },
  {
    "Compound": "c1ccc(N=c2snc(-c3ccccc3)s2)cc1",
    "Tested target": "MALME-3M melanoma",
    "Obs value": "> 100 µM"
  },
  {
    "Compound": "Cc1nc2nnc(C)n2c2c1C(=O)Nc1ccccc1N2",
    "Tested target": "MALME-3M melanoma",
    "Obs value": "> 100 µM"
  },
  {
    "Compound": "O=[N+]([O-])c1ccc(NSc2ccccc2)cc1",
    "Tested target": "MALME-3M melanoma",
    "Obs value": "> 100 µM"
  },
  {
    "Compound": "COc1ccc(N=Cc2cc(OC)c(OC)c(OC)c2)cc1",
    "Tested target": "MALME-3M melanoma",
    "Obs value": "> 100 µM"
  },
  {
    "Compound": "CC1=CCCC(OC(N)=O)C1 (stereo not given)",
    "Tested target": "MALME-3M melanoma",
    "Obs value": "> 100 µM"
  },
  {
    "Compound": "CSc1c(C(=O)Nc2ccc(C)cc2)c(N)[nH]c(=O)c1C#N",
    "Tested target": "MALME-3M melanoma",
    "Obs value": "> 100 µM"
  },
  {
    "Compound": "COC(=O)CCCC(=O)C(=Nc1c(Cl)cccc1Cl)NNc1ccc(Cl)cc1",
    "Tested target": "MALME-3M melanoma",
    "Obs value": "> 100 µM"
  },
  {
    "Compound": "C[C@@H]1Cc2c([nH]c3ccccc23)[C@@H](c2c(F)cc(/C=C/C(=O)O)cc2F)N1CC(C)(C)F",
    "Tested target": "MALME-3M melanoma",
    "Obs value": "34.3 µM"
  },
  {
    "Compound": "Cc1cccc(C[C@@]2(SCc3ccccc3)C(C)(C)[C@@H]3CC[C@@]2(C)C3)n1",
    "Tested target": "MALME-3M melanoma",
    "Obs value": "33 µM"
  },
  {
    "Compound": "CC1CCC[P+](Cc2ccccc2)(c2ccccc2)CC1 (stereo not given)",
    "Tested target": "MALME-3M melanoma",
    "Obs value": "42.6 µM"
  },
  {
    "Compound": "O=C1/C(=C/c2ccc([N+](=O)[O-])cc2)CNC/C1=C\\c1ccc([N+](=O)[O-])cc1",
    "Tested target": "MALME-3M melanoma",
    "Obs value": "> 100 µM"
  },
  {
    "Compound": "N#Cc1nc(-c2ccc(F)cc2)oc1S(=O)(=O)N1CCOCC1",
    "Tested target": "MALME-3M melanoma",
    "Obs value": "4.23 µM"
  },
  {
    "Compound": "COC(=O)c1c2c(c(C)[n+]([O-])c1C)C(=O)C=CC2=O",
    "Tested target": "MALME-3M melanoma",
    "Obs value": "2.92 µM"
  },
  {
    "Compound": "CN(C)S(=O)(=O)Nc1ccccn1",
    "Tested target": "MALME-3M melanoma",
    "Obs value": "> 100 µM"
  },
  {
    "Compound": "Cc1cc(C)c2c(n1)S(=O)(=O)N(CCCN1CCN(c3cccc(C(F)(F)F)c3)CC1)/C(=C(\\O)c1ccc(Cl)cc1)C2=O",
    "Tested target": "MALME-3M melanoma",
    "Obs value": "15.8 µM"
  },
  {
    "Compound": "CC1=CC(=O)N(n2c(C)n[nH]c2=O)C1=O",
    "Tested target": "MALME-3M melanoma",
    "Obs value": "> 100 µM"
  },
  {
    "Compound": "C#CC(C)(C)Oc1cc(O)c2c(=O)c3ccccc3n(C)c2c1",
    "Tested target": "MALME-3M melanoma",
    "Obs value": "> 100 µM"
  },
  {
    "Compound": "Cc1nc2cc(C(F)(F)F)ccc2[nH]c1=O",
    "Tested target": "MALME-3M melanoma",
    "Obs value": "> 100 µM"
  },
  {
    "Compound": "Cc1cccc(N(CCC#N)S(=O)(=O)c2ccccc2)c1",
    "Tested target": "MALME-3M melanoma",
    "Obs value": "> 100 µM"
  },
  {
    "Compound": "O=c1[nH]c(=O)n(C2CC(O)C(CO)O2)cc1C#Cc1c(F)c(F)c(F)c(F)c1F (stereo not given)",
    "Tested target": "MALME-3M melanoma",
    "Obs value": "> 100 µM"
  },
  {
    "Compound": "CN1CCN(C(=S)N(C)C(=O)c2ccc(Cl)cc2)CC1",
    "Tested target": "MALME-3M melanoma",
    "Obs value": "> 100 µM"
  },
  {
    "Compound": "COc1cc([C@@H]2c3cc4c(cc3C[C@H]3COC(=O)[C@@H]32)OCO4)cc(OC)c1OC",
    "Tested target": "MALME-3M melanoma",
    "Obs value": "> 50 µM"
  },
  {
    "Compound": "COC(=O)C1CC(C=[N+](C)C)=C(SC)N1 (stereo not given)",
    "Tested target": "MALME-3M melanoma",
    "Obs value": "> 100 µM"
  },
  {
    "Compound": "O=C(O)c1ccc(NS(=O)(=O)Cc2ccccc2)cc1",
    "Tested target": "MALME-3M melanoma",
    "Obs value": "> 100 µM"
  },
  {
    "Compound": "O=C(/C=C/c1cccs1)c1ccc(Cl)cc1",
    "Tested target": "MALME-3M melanoma",
    "Obs value": "> 100 µM"
  },
  {
    "Compound": "Cc1cc2cccc(Cl)c2nc1C(=O)c1ccccc1",
    "Tested target": "MALME-3M melanoma",
    "Obs value": "> 100 µM"
  },
  {
    "Compound": "O=C1N[C@@H]2c3c(csc3Br)C(=O)[C@@H]2O1",
    "Tested target": "MALME-3M melanoma",
    "Obs value": "> 100 µM"
  },
  {
    "Compound": "CN(C)c1ccc2c(c1)oc(=O)c1ccccc12",
    "Tested target": "MALME-3M melanoma",
    "Obs value": "24.5 µM"
  },
  {
    "Compound": "O=C1Oc2cc3c(c4cccc1c24)OCN(c1ccc(Cl)cc1)C3",
    "Tested target": "MALME-3M melanoma",
    "Obs value": "> 60.7 µM"
  },
  {
    "Compound": "NC1(CCCCCCCCCCC(=O)O)CNCCNCCNCCNC1",
    "Tested target": "MALME-3M melanoma",
    "Obs value": "> 100 µM"
  },
  {
    "Compound": "CC(=O)Nc1ccc(Cl)c(Cl)c1",
    "Tested target": "MALME-3M melanoma",
    "Obs value": "> 100 µM"
  },
  {
    "Compound": "CCCCCCCCCCCCOC1C(CNCC2OC3OC(C)(C)OC3C2NC(=O)Nc2ccc(C(=O)OCC)cc2)OC2OC(C)(C)OC21 (stereo not given)",
    "Tested target": "MALME-3M melanoma",
    "Obs value": "29.1 µM"
  },
  {
    "Compound": "C[Si](C)(C)c1ccc(CC2(Cc3ccc([Si](C)(C)C)cc3)CCNC2)cc1",
    "Tested target": "MALME-3M melanoma",
    "Obs value": "11.6 µM"
  },
  {
    "Compound": "O=C1/C(=C/c2ccc(Br)s2)NC(=S)N1CN1CCOCC1",
    "Tested target": "MALME-3M melanoma",
    "Obs value": "> 100 µM"
  }
]
